assay: Cmax in Sprague-Dawley rat liver at 3 mg/kg, po; assay type: ADME, organism-based; parameters: dose 3 mg/kg, route oral

{"entrySmiles": "Nc1n[nH]c2nc(-c3ccc(NS(=O)(=O)c4cccc(Cl)c4Cl)cc3)cnc12", "readoutUnits": "ng/g", "Cmax": 230}

###

assay: Half life in Sprague-Dawley rat kidney at 30 mg/kg, po; type: ADME, organism-based; set-up: dose 30 mg/kg, route oral

{"entrySmiles": "Nc1n[nH]c2nc(-c3ccc(NS(=O)(=O)c4cccc(Cl)c4Cl)cc3)cnc12", "readoutUnits": "h", "half-life": 4.4}

###

assay: Cmax in Sprague-Dawley rat kidney at 30 mg/kg, po after 4 hrs; format: ADME, organism-based; set-up: dose 30 mg/kg, route oral

{"entrySmiles": "Nc1n[nH]c2nc(-c3ccc(NS(=O)(=O)c4cccc(Cl)c4Cl)cc3)cnc12", "Cmax / ng/g": 9100}
